Molecular target: Cbl-b (Homo sapiens (Human), UniProt Q13191)
Sequence (Q13191 40-426): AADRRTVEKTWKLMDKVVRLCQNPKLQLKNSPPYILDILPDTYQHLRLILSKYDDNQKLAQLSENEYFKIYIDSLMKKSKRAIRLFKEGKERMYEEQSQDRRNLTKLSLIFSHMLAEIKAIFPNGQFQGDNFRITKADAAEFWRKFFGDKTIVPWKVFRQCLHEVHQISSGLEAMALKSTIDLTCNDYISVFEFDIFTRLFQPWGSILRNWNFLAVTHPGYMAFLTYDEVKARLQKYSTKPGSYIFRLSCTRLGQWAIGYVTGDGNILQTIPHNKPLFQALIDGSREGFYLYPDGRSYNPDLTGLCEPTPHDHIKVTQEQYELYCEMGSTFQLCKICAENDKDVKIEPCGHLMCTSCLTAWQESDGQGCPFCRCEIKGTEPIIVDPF
Assay: Cbl-b LCK Ub TR-FRET assay (Cbl-b Lck HTRF)
Assay type: biochemical
Conditions: read-out: Cbl-b Lck HTRF IC50
quantity: IC50 (nM)
Write the value in nM as a bare number.

See these solved cases before continuing.
molecule	quantity	assay_value
CC(C)[C@H]1CN(C)CCN1Cc1cc(C(=O)Nc2cccc(C3([C@H](F)c4nncn4C)CC(F)(F)C3)c2)nc(C2CC2)c1	IC50	11
Cn1cnnc1[C@H](F)[C@](C)(F)c1cccc(NC(=O)c2cc(CN3CC(C)(F)C3)nc(C3CC3)n2)c1	IC50	320
CC(C)[C@H]1CN(C)CCN1Cc1cc(C(=O)Nc2cccc(C3([C@H](F)c4nncn4C)COC3)c2)nc(C2CC2)c1	IC50	9.9
Cn1cnnc1C[C@]1(c2cccc(NC(=O)c3cccc(C(F)(F)F)n3)c2)C[C@H](F)C1	IC50	260
Cn1cnnc1[C@@H](F)C(C)(F)c1cccc(NC(=O)c2cc(CN3CC(C)(F)C3)nc(C3CC3)n2)c1 (stereo in doubt) [Compound 46]	IC50	420
C[C@H](Cc1nncn1C)c1cccc(NC(=O)c2nc(C3CC3)c[nH]2)c1	IC50	2800
Cn1cnnc1[C@@H](F)[C@@](C)(F)c1cccc(NC(=O)c2cc(CN3CCC4(CC4)C3)nc(C3CC3)n2)c1	IC50	4800
Cn1cnnc1[C@H](F)[C@](C)(F)c1cccc(NC(=O)c2cc(CN3CCC4(CC4)C3)cc(C3CC3)n2)c1	IC50	23
Cn1cnnc1CC1(c2cccc(NC(=O)c3nc(C(F)(F)F)c[nH]3)c2)COC1	IC50	2300
CC(C)[C@H]1CN(C)CCN1Cc1cc(C(=O)Nc2cccc(C3([C@@H](F)c4nncn4C)CC(F)(F)C3)c2)nc(C2CC2)c1	IC50	7.1

Give the value of IC50 reported for the following: `Cn1cnnc1[C@@H](F)C1(c2cccc(NC(=O)c3cc(CN4CCC5(CC5)C4)nc(C4CC4)n3)c2)COC1` 170

====

Molecular target: Cbl-b (Homo sapiens (Human))
Assay: Cbl-b LCK Ub TR-FRET assay (Cbl-b Lck HTRF)
Type: biochemical
Settings: read-out: Cbl-b Lck HTRF IC50
Reported pIC50 by item:
Quick note: pIC50 means taking -log10 of the concentration in moles per liter.

Example entries and their recorded answers appear below.
molecule	pIC50
C[C@H](c1cc(C(=O)Nc2cccc(C3(Cc4nncn4C)COC3)c2)nc(C(F)(F)F)c1)N1CCC2(CC2)C1	7.17
Cn1cnnc1CC1(c2cccc(NC(=O)c3cc(CN4CC(C)(O)C4)cc(C4CC4)n3)c2)CC(F)(F)C1	7.77
C[C@H](c1cc(C(=O)Nc2cccc(C3([C@H](F)c4nncn4C)COC3)c2)nc(C2CC2)c1)N1CC(C)(F)C1	7.30

Using known records, supply pIC50 for `C[C@H](Cc1nncn1C)c1cccc(NC(=O)c2nc(C(F)(F)F)cn2C)c1` 5.36

Read the entry Cn1cnnc1C(F)C1(c2cccc(NC(=O)c3nc(C(F)(F)F)c[nH]3)c2)COC1 (centres unmarked) and write its reported pIC50. 5.43

Specify measured pIC50 for `Cn1cnnc1[C@H](F)C1(c2cccc(NC(=O)c3cc(CN4CCC5(CC5)C4)nc(C4CC4)n3)c2)COC1` . 6.92

Could you please provide reported pIC50 for `Cn1cnnc1CC1(c2cccc(NC(=O)c3cc(CCO)cc(C(F)(F)F)n3)c2)COC1` ? Thanks! 6.82

Give the value of pIC50 reported for the following: `Cn1cnnc1[C@@H](F)[C@@]1(c2cccc(NC(=O)c3cccc(C(F)(F)F)n3)c2)CCO1` 4.70

In one line, give reported pIC50 of the entry `Cn1cnnc1[C@@H](F)C1(c2cccc(NC(=O)c3cc(CN4CC(C)(F)C4)cc(C(F)(F)F)n3)c2)COC1` . 6.74

Kindly indicate its recorded pIC50. Item: `Cn1cnnc1CC1(c2cccc(NC(=O)c3cc(CN4CC(C)(CO)C4)cc(C4CC4)n3)c2)CC(F)(F)C1` 7.89

Please report the measured pIC50 for `CC(C)[C@H]1CN(C)CCN1Cc1cc(C(=O)Nc2cccc(C3(Cc4nncn4C)CC(F)(F)C3)c2)nc(C2CC2)c1` 8.12

Write down pIC50 measured for item `C[C@@H](c1cc(C(=O)Nc2cccc(C3([C@H](F)c4nncn4C)COC3)c2)nc(C2CC2)c1)N1CC(C)(F)C1` 6.54

For the molecule Cn1cnnc1[C@H](F)C1(c2cccc(NC(=O)c3cc(CN)cc(C(F)(F)F)n3)c2)COC1.O=CO [Compound 64, formate] , give its measured pIC50 value. 6.70

Let me know recorded pIC50 for `Cn1cnnc1CC1(c2cccc(NC(=O)c3cc(CN4CCC5(CC5)C4)cc(C(F)(F)F)n3)c2)COC1` , thanks. 7.36

For the molecule `CC(C)[C@H]1CN(C)CCN1Cc1cc(C(=O)Nc2cccc(C3([C@@H](F)c4nncn4C)COC3)c2)nc(C2CC2)c1` , report pIC50. 7.96

Query pIC50 for `Cn1cnnc1[C@@H](F)C1(c2cccc(NC(=O)c3cc(CN4CC(C)(F)C4)nc(C4CC4)n3)c2)COC1` 6.29

Fill in pIC50 for record Cn1cnnc1[C@@H](F)C1(c2cccc(NC(=O)c3cc(CN)cc(C(F)(F)F)n3)c2)COC1.O=CO [Compound 65, formate] 6.70

====

Biological target: Cbl-b (Homo sapiens (Human), UniProt Q13191)
Assay: Cbl-b LCK Ub TR-FRET assay (Cbl-b Lck HTRF)
Format: biochemical
Conditions: read-out: Cbl-b Lck HTRF IC50
quantity: IC50 (nM)
Report as a plain number; the unit nM is understood.

Look over these answered cases.
compound	IC50 / nM
C[C@H](c1cc(C(=O)Nc2cccc(C3([C@@H](F)c4nncn4C)COC3)c2)nc(C2CC2)c1)N1CC(C)(F)C1 [Compound 113]	21
Cn1cnnc1CC1(c2cccc(NC(=O)c3cc(C(CC4CC4)N4CCC5(CC5)C4)cc(C(F)(F)F)n3)c2)COC1 (stereo not drawn) [Compound 505]	26
Cn1cnnc1[C@@H](F)[C@@](C)(F)c1cccc(NC(=O)c2cc(CN3CCC4(CC4)C3)cc(C3CC3)n2)c1 [Compound 37]	780
Cn1cnnc1[C@@H](F)C1(c2cccc(NC(=O)c3cc(CN4CC(C)(F)C4)cc(C4CC4)n3)c2)COC1 [Compound 8]	30
Cn1cnnc1C[C@]1(c2cccc(NC(=O)c3cccc(C(F)(F)F)n3)c2)C[C@@H](F)C1 [Compound 19]	280

Entry Cn1cnnc1CC1(c2cccc(NC(=O)c3cccc(C(F)(F)F)n3)c2)CC(F)(F)C1 [Compound 16] needs its IC50 filled in; supply it. 260

Give the value of IC50 reported for the following: C[C@@H](c1cc(C(=O)Nc2cccc(C3([C@@H](F)c4nncn4C)COC3)c2)nc(C2CC2)c1)N1CCC2(CC2)C1 [Compound 22] 12

Hello, please tell me recorded IC50 for this one: Cn1cnnc1[C@H](F)[C@@](C)(F)c1cccc(NC(=O)c2cc(CN3CCC4(CC4)C3)cc(C3CC3)n2)c1 [Compound 36] 140

Identify the reported IC50 for the following entry. Cn1cnnc1[C@H](F)[C@@](C)(F)c1cccc(NC(=O)c2cc(CN3CC(C)(F)C3)nc(C3CC3)n2)c1 [Compound 44] 2300

Quick one: give measured IC50 for C[C@@H](c1cc(C(=O)Nc2cccc(C3(Cc4nncn4C)COC3)c2)nc(C(F)(F)F)c1)N1CC(F)C1 [Compound 1] 110

Respond only with IC50 recorded for Cn1cnnc1[C@H](F)[C@@]1(c2cccc(NC(=O)c3cccc(C(F)(F)F)n3)c2)CCO1 [Compound 501] 15000

Name the recorded IC50 of the item C[C@@H](c1cc(C(=O)Nc2cccc(C3([C@H](F)c4nncn4C)COC3)c2)nc(C2CC2)c1)N1CCC2(CC2)C1 [Compound 24] in your answer. 63

Tell me measured IC50 for Cn1cnnc1[C@H](F)[C@@](C)(F)c1cccc(NC(=O)c2cc(CN3CCC4(CC4)C3)nc(C3CC3)n2)c1 [Compound 40] please. 880

For the compound Cn1cnnc1CC1(c2cccc(NC(=O)c3cc(CC(N)=O)cc(C(F)(F)F)n3)c2)COC1 [Compound 507] , give its measured IC50 value. 100

Supply measured IC50 of C[C@@H](c1cc(C(=O)Nc2cccc(C3(Cc4nncn4C)COC3)c2)nc(C(F)(F)F)c1)N1CCC2(CC2)C1 [Compound 3] in your reply. 25
